# TARGET_OR_TEST_SYSTEM: P2X7 (Homo sapiens (Human), UniProt Q99572)
# Sequence (Q99572 whole entry): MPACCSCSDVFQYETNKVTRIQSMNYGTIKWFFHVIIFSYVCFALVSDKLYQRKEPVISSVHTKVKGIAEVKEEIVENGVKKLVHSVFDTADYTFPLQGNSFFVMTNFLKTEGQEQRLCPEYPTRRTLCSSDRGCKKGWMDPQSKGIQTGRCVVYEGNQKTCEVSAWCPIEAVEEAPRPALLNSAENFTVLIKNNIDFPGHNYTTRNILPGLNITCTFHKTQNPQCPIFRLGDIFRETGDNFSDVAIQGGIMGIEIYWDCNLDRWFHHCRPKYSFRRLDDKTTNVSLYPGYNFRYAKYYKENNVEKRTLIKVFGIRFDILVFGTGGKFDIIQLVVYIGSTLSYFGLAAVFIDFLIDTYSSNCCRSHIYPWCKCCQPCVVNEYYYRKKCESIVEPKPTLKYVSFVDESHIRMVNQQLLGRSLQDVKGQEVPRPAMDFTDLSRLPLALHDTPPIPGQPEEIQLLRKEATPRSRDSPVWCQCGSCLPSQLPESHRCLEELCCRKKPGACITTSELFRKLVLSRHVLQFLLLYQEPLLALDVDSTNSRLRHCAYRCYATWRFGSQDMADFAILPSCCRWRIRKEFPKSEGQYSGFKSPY
# PROTOCOL_DESCRIPTION: P2X7 antagonism in human PBMCs (LPS + Bz-ATP induced IL-1β release, ELISA);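 note: PBMCs from donor human blood, with a further 1.5 h incubation of the cells in the assay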
# Type: cell-based
# CONDITION_SET: compound 1 μM, LPS 30 ng/ml, Bz-ATP 0.5 mM
READOUT_NAME: PBMC 1 μM (% control)

O=C(c1cccc(C(F)(F)F)c1Cl)N1CCc2c(ncn2-c2ccccn2)C1 : 11.5
C[C@H]1c2nnn(-c3cnccn3)c2CCN1C(=O)c1cccc(C(F)(F)F)c1Cl (single isomer, unassigned) : 5.2
C[C@@H]1c2nnn(-c3cnccn3)c2CCN1C(=O)c1cccc(C(F)(F)F)c1Cl (single isomer, unassigned) : 102.6
O=C(c1cccc(C(F)(F)F)c1Cl)N1CCc2c(ncn2-c2ccccc2)C1 : 7.9
O=C(c1cccc(Cl)c1Cl)N1CCc2c(nnn2-c2ccccc2)C1 : 5.2

(1) Cn1nc(-c2ccc(F)cc2)c2c1CN(C(=O)c1cccc(Cl)c1Cl)CC2
(2) O=C(c1cccc(C(F)(F)F)c1Cl)N1CCc2c(nnn2-c2cnccn2)C1
(3) O=C(c1ccnc(Cl)c1Cl)N1CCc2c(-c3ccccc3)n[nH]c2C1
List these items ordered by PBMC 1 μM (% control), big to small. Give your ranking as a list of the labels in the requested order.
1, 3, 2
(1: 94.1 % control, 3: 8.9 % control, 2: 6.1 % control)

###

# TARGET_OR_TEST_SYSTEM: P2X7 (Homo sapiens (Human), UniProt Q99572)
# PROTOCOL_DESCRIPTION: Ca2+ flux (FLIPR) in 1321N1 cells expressing recombinant human P2X7 channel;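 note: Calcium-4 dye-loaded cells exposed to compound for 30 min before agonist addition, fluorescence change read 180 s after agonist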
# Assay type: cell-based
# CONDITION_SET: 250 μM BzATP
pIC50: −log10 of the molar value.
READOUT_NAME: pIC50

A selection of reference data follows.
C[C@@H]1Cc2c(nnn2-c2cc(F)ccn2)CN1C(=O)c1cccc(C(F)(F)F)c1Cl (single isomer, unassigned) : 6.74
C[C@H]1c2nnn(-c3cncnc3)c2CCN1C(=O)c1cccc(C(F)(F)F)c1Cl : 6.99

(P) C[C@@H]1Cc2c(nnn2-c2ncccn2)CN1C(=O)c1cccc(C(F)(F)F)c1Cl (single isomer, unassigned)
(Q) O=C(c1cccc(C(F)(F)F)c1Cl)N1CCc2c(-c3ccccc3)n[nH]c2C1
# query: argmin of pIC50 over P and Q Answer format: the label of the selected item.
P
(P: 6.30, Q: 7.94)

###

# TARGET_OR_TEST_SYSTEM: P2X7 (Homo sapiens (Human))
# PROTOCOL_DESCRIPTION: P2X7 antagonism in human PBMCs (LPS + Bz-ATP induced IL-1β release, ELISA)
# Type: cell-based
# CONDITION_SET: compound 10 μM, LPS 30 ng/ml, Bz-ATP 0.5 mM
READOUT_NAME: PBMC 10 μM (% control)

C[C@H]1c2nnn(-c3ncccn3)c2CCN1C(=O)c1cccc(C(F)(F)F)c1Cl (single isomer, unassigned) : 21.7

(I) O=C(c1cccc(C(F)(F)F)c1Cl)N1CCc2c(nnn2-c2cccc(F)n2)C1
(II) CCCOc1cccnc1-n1nnc2c1CCN(C(=O)c1cccc(C(F)(F)F)c1Cl)C2C (stereo not shown)
Given I and II , report the one with the higher recorded PBMC 10 μM (% control). Answer format: the label of the selected item.
I
(I: 1.7 % control, II: −11.3 % control)

Reference source for all entries: patent US9464084B2
